- targetOfAssay: human ether-à-go-go-related gene (hERG) potassium channel (human, UniProt Q12809);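 further: peak tail current of the secondary pulse compared with the same well before compound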
- Sequence (Q12809 whole entry, looked up): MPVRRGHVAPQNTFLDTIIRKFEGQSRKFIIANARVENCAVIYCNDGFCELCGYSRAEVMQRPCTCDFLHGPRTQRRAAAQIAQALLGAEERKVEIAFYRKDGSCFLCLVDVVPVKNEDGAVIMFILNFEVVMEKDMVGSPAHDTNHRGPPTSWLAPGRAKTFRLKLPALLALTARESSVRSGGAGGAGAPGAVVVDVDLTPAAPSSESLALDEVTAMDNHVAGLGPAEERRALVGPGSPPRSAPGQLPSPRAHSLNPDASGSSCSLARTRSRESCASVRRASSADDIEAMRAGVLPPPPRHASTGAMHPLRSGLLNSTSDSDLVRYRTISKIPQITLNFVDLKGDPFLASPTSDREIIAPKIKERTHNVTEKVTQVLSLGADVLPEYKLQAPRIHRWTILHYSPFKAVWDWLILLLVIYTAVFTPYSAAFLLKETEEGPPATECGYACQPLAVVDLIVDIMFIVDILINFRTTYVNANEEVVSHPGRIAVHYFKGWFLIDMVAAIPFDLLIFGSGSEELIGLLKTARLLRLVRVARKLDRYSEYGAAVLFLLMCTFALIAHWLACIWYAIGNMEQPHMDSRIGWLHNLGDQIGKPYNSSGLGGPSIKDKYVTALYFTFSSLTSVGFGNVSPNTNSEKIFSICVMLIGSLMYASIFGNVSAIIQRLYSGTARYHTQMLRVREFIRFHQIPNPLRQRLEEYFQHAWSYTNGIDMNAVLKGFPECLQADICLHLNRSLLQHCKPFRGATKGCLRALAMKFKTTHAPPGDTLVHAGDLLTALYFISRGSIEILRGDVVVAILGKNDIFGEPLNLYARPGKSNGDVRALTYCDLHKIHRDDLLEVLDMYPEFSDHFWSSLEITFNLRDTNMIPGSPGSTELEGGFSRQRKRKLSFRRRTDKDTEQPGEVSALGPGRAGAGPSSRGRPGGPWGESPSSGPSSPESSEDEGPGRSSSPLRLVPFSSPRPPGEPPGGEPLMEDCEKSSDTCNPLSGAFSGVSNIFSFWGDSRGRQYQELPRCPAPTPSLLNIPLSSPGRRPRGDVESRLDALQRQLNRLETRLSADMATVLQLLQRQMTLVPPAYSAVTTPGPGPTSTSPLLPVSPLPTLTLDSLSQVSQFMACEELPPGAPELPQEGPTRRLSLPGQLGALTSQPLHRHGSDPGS
- runDescription: primary screen, population patch clamp on CHO cells stably expressing hERG; higher = less effect of the substance
The whole screen tested about 310,000 compounds, of which about 14,000 (4.5%) showed an effect of 50% or more. The effect is printed as a negative number. The sample as a whole holds a higher share of strong results than the screen did.
measuredAttribute: hERG current change (%, negative = inhibition) at 10uM (%)

> print(dat)
                                    compound                             targetofassay  testvalue
 1  COc1cccc(OCc2cc(C(=O)N3CCN(C(C)=O)CC3)no2)c1  human ether-à-go-go-related gene (hERG) potassium channel (human, UniProt Q12809)      -1.97
 2  OCC(O)CN(c1ccccc1)c1ccccc1 (stereo not shown)  human ether-à-go-go-related gene (hERG) potassium channel (human, UniProt Q12809)       2.58
 3  Cc1c(NC(=O)c2cc3c(=O)n4ccccc4nc3s2)c(=O)n(-c2ccccc2)n1C  human ether-à-go-go-related gene (hERG) potassium channel (human, UniProt Q12809)       8.11
 4  Cc1ccc(C)c(N(CC(=O)NC2CCCC2)S(=O)(=O)c2ccccc2)c1  human ether-à-go-go-related gene (hERG) potassium channel (human, UniProt Q12809)       19.9
 5  NCC(O)CN(c1ccccc1)c1ccccc1 (stereo not shown)  human ether-à-go-go-related gene (hERG) potassium channel (human, UniProt Q12809)         12
 6  Cc1ccc(C)n1CCN1CCN(C(=O)c2ccc(Cl)cc2)CC1  human ether-à-go-go-related gene (hERG) potassium channel (human, UniProt Q12809)      -50.3
 7  Cc1ccc(OCC(O)Cn2c(=N)n(CCN3CCCCC3)c3ccccc32)cc1.Cl (stereo not shown)  human ether-à-go-go-related gene (hERG) potassium channel (human, UniProt Q12809)      -72.9
 8  CCO[C@H]1c2c(ccc3ccc(=O)oc23)OC(C)(C)[C@@H]1O  human ether-à-go-go-related gene (hERG) potassium channel (human, UniProt Q12809)       20.9
 9   Cc1ccc(NC(=O)CC(=O)Nc2ccc(C)c(C)c2)cc1C  human ether-à-go-go-related gene (hERG) potassium channel (human, UniProt Q12809)       11.7
10  O=C(COC(=O)CN1C(=O)C2CCCCC2C1=O)Nc1cc(S(=O)(=O)N2CCOCC2)ccc1Cl (stereo not shown)  human ether-à-go-go-related gene (hERG) potassium channel (human, UniProt Q12809)      -12.6
11                          CSc1nnc(SCC#N)s1  human ether-à-go-go-related gene (hERG) potassium channel (human, UniProt Q12809)       8.95
12  O=C(CN1C(=O)NC2(CCCC2)C1=O)OCCOc1cccc(Cl)c1  human ether-à-go-go-related gene (hERG) potassium channel (human, UniProt Q12809)      -7.43
13  COc1cc(OC)cc(C(=O)N2CCN(C(=O)c3ccc(OC)c(OC)c3)CC2)c1  human ether-à-go-go-related gene (hERG) potassium channel (human, UniProt Q12809)        -14
14  CCN1CCCC1CNC1=NCCCCC1 (stereo not shown)  human ether-à-go-go-related gene (hERG) potassium channel (human, UniProt Q12809)       7.64
15      O=C(c1cc(COc2ccc(F)cc2F)on1)N1CCSCC1  human ether-à-go-go-related gene (hERG) potassium channel (human, UniProt Q12809)      -11.7
16                  CCCOC(=O)Nc1ccccc1C(N)=O  human ether-à-go-go-related gene (hERG) potassium channel (human, UniProt Q12809)       4.61
17  CC(=O)N1c2ccc(S(=O)(=O)N(C)c3cc(C)ccc3C)cc2CC1C (stereo not shown)  human ether-à-go-go-related gene (hERG) potassium channel (human, UniProt Q12809)      -8.67
18  CNC1=C(N(C(C)=O)c2ccc(Br)cc2)C(=O)c2ccccc2C1=O  human ether-à-go-go-related gene (hERG) potassium channel (human, UniProt Q12809)       11.5
19  CCn1c(SCC(=O)N/N=C/c2ccccc2OCC(=O)O)nnc1-c1ccc(C)cc1  human ether-à-go-go-related gene (hERG) potassium channel (human, UniProt Q12809)       3.57
20  CCOc1cc(C=C(C(=O)OC)C(=O)OC)ccc1OCc1ccc([N+](=O)[O-])cc1  human ether-à-go-go-related gene (hERG) potassium channel (human, UniProt Q12809)       4.17
21  C/C=C/C(=O)N1CC2(CC(c3cccc(NC(=O)COc4ccc(Cl)cc4)c3)=NO2)C[C@@H]1C(N)=O (stereo partly shown)  human ether-à-go-go-related gene (hERG) potassium channel (human, UniProt Q12809)      -41.4
22  CCOc1ccc(C(O)(c2ccccc2)C(CN2CCCC2)c2ccccc2)cc1.Cl (stereo not shown)  human ether-à-go-go-related gene (hERG) potassium channel (human, UniProt Q12809)        -34
23  CC/C=C/C(=O)N1CC2(CC(c3cccc(NC(=O)COc4ccc(Cl)cc4)c3)=NO2)C[C@H]1C(N)=O (stereo partly shown)  human ether-à-go-go-related gene (hERG) potassium channel (human, UniProt Q12809)      -64.7
24  COc1cccc(OCc2cc(C(=O)N3CCN(C(=O)c4ccco4)CC3)no2)c1  human ether-à-go-go-related gene (hERG) potassium channel (human, UniProt Q12809)      -51.7
25  CCN(C(=O)CSc1nc(N)cc(=O)[nH]1)c1c(N)n(Cc2ccccc2)c(=O)[nH]c1=O  human ether-à-go-go-related gene (hERG) potassium channel (human, UniProt Q12809)       2.41
26  Cc1cc(C)n2nc(C(=O)OCC(=O)N3CC(C)CC(C)C3)nc2n1 (stereo not shown)  human ether-à-go-go-related gene (hERG) potassium channel (human, UniProt Q12809)       15.4
27                COc1cccc(NC(=O)Cc2cccs2)c1  human ether-à-go-go-related gene (hERG) potassium channel (human, UniProt Q12809)       14.4
28  C/C=C\C=C\C(=O)N1CC2(CC(c3cccc(NC(=O)COc4ccc(Cl)cc4)c3)=NO2)C[C@H]1C(N)=O (stereo partly shown)  human ether-à-go-go-related gene (hERG) potassium channel (human, UniProt Q12809)      -76.9
29  COc1cc(OC)cc(-c2nc3ccccc3c(=O)n2OC(=O)c2ccccc2C)c1  human ether-à-go-go-related gene (hERG) potassium channel (human, UniProt Q12809)       10.6
30  CCOCc1nnc(NC(=O)C2CC(=O)N(CCc3ccc(F)cc3)C2)s1 (stereo not shown)  human ether-à-go-go-related gene (hERG) potassium channel (human, UniProt Q12809)       5.97
31  CCOC(=O)N1CCN(S(=O)(=O)c2ccc(C)cc2)C1c1ccc(OC)cc1 (stereo not shown)  human ether-à-go-go-related gene (hERG) potassium channel (human, UniProt Q12809)      -11.9
32  Cc1ccc(OCC(O)Cn2c(=N)n(CCN3CCOCC3)c3ccccc32)cc1.Cl (stereo not shown)  human ether-à-go-go-related gene (hERG) potassium channel (human, UniProt Q12809)      -43.6
33              C=CCn1c(SCCC#N)nnc1-c1ccncc1  human ether-à-go-go-related gene (hERG) potassium channel (human, UniProt Q12809)      -4.28
34  O=C(CCN1C(=O)c2ccccc2C1=O)N1CCN(C(=O)c2ccccc2)CC1  human ether-à-go-go-related gene (hERG) potassium channel (human, UniProt Q12809)    0.00878
35                   COc1ccccc1OCCCCN1CCCCC1  human ether-à-go-go-related gene (hERG) potassium channel (human, UniProt Q12809)      -1.89
36     Fc1ccccc1NC(=S)NNc1ncc(C(F)(F)F)cc1Cl  human ether-à-go-go-related gene (hERG) potassium channel (human, UniProt Q12809)       21.2
37  COc1cccc(OCc2cc(C(=O)N3CCN(c4ccccc4O)CC3)no2)c1  human ether-à-go-go-related gene (hERG) potassium channel (human, UniProt Q12809)       4.71
38  CN(C)CC(O)CN(c1ccccc1)c1ccccc1 (stereo not shown)  human ether-à-go-go-related gene (hERG) potassium channel (human, UniProt Q12809)        -54
39  COc1ccc(OCCN2C(=O)NC3(CCc4ccccc4C3)C2=O)cc1 (stereo not shown)  human ether-à-go-go-related gene (hERG) potassium channel (human, UniProt Q12809)      -49.7
40  C=CCn1c(SCc2ccc(C#N)cc2)nnc1-c1ccc(C)cc1  human ether-à-go-go-related gene (hERG) potassium channel (human, UniProt Q12809)      -71.3
